# Tested on: OVCAR-3 ovarian
# experimental-protocol: NCI-60 one-dose screen, 48 h (100 = growth as untreated, 0 = no growth, -100 = all killed)
# protocol-conditions: 10 µM unless noted
This is part of a sample that, as a whole, favours compounds with a hit. Of some 83,000 tested, about 20% had one in any assay.
Checkbox rule: growth lower than 70% = rule met; growth not lower than 70% = rule not met.

# molecule, classification
data = [
    ("O=NN(CC(=O)NNc1ccccc1)CC(=O)NNc1ccccc1", "rule not met"),
    ("COc1ccc(NC(=O)/C=C/c2ccc(NC(=O)N3CCCC3)cc2)cn1", "rule not met"),
]

Just wondering, is growth of Cc1ccc(CSCc2ccc(C(=O)NC3CC3)o2)cc1 below 70%?
rule not met

Is 70% strictly greater than the compound's reported growth? compound: Clc1ccc2c(c1)-n1cccc1C(c1ccc3ccccc3c1)=NC2
rule not met

I wonder whether N#Cc1nc(-c2cccc(Br)c2)cc(-c2ccc(Nc3nc(N4CCCCC4)nc(N4CCCCC4)n3)cc2)c1N has growth below 70%. Can you tell?
rule met

growth under 70%? Item: COc1ccc(-c2nc(-c3cc(OC)cc(OC)c3)[nH]c2-c2ccc(OC)cc2)cc1
rule met

Does the reported growth of the following compound sit strictly below 70%? CCOCC(O)(c1ccc(Cl)cc1)c1ccc(Cl)cc1
rule not met

Find out if reported growth for COc1ccc(/C(=C\c2ccc3c(c2)OCO3)C(=O)Nc2nc3ccc(F)cc3s2)cc1OC is less than 70%
rule not met

Field: below-cutoff. Rule: recorded growth strictly less than 70%. Subject: Cc1nn(-c2ccc(Cl)cc2)c(=O)n1CCN1CCOCC1
rule not met

Value source: PubChem BioAssay (NCI)
